# protocol.details: Phase Ib twice-daily dose study of DGJ in healthy volunteers, plasma and urine pharmacokinetics
# Type: in vivo, human
# condition.details: 150 mg bid, Day 7
assay.metric: Cmax (µM)
Your answer should be a plain number; it is taken to be in µM.

Looking up `OC[C@H]1NC[C@H](O)[C@@H](O)[C@H]1O` , I found its Cmax recorded as 10.8

###

# protocol.details: Phase 1 multiple-dose study of IFG in healthy subjects, plasma pharmacokinetics
# Assay type: in vivo, human
# condition.details: human, plasma, oral; read-out: Tmax
assay.metric: Tmax (h)
Field: numeric (h). Do not append units.

Data point: `OC[C@H]1CNC[C@@H](O)[C@@H]1O` ; Tmax = 3

###

# protocol.details: Phase Ib twice-daily dose study of DGJ in healthy volunteers, plasma and urine pharmacokinetics
# Assay type: in vivo, human
# condition.details: human, plasma, oral, 50 mg, 50 mg bid, Day 7
assay.metric: Cmax (µM)
Provide the reading as a plain figure in µM.

Please fill in: Cmax reported for OC[C@H]1NC[C@H](O)[C@@H](O)[C@H]1O [DGJ] = 3.9

###

# protocol.details: Phase 1 multiple-dose study of IFG in healthy subjects, plasma pharmacokinetics
# Assay type: in vivo, human
# condition.details: human, plasma, oral, 150 mg
assay.metric: Cmax (µM)
Numbers only; they are read as µM.

Quick note, Cmax for `OC[C@H]1CNC[C@@H](O)[C@@H]1O` landed at 1.7

###

# protocol.details: Phase 1 multiple-dose study of IFG in healthy subjects, plasma pharmacokinetics
# Format: in vivo, human
# condition.details: human, plasma, oral, plasma; read-out: Half-life (converted)
assay.metric: half-life (h)
Please state the figure in h; there is no need to write the unit.

For `OC[C@H]1CNC[C@@H](O)[C@@H]1O` the compound record lists half-life as 14

###

# protocol.details: Phase 1 multiple-dose study of IFG in healthy subjects, plasma pharmacokinetics
# Format: in vivo, human
# condition.details: human, plasma, oral, 25 mg
assay.metric: Cmax (nM)
Lab book: enter the figure in nM, no units written.

Notebook: `OC[C@H]1CNC[C@@H](O)[C@@H]1O` , Cmax read as 310

###

# protocol.details: Phase 1 multiple-dose study of IFG in healthy subjects, plasma pharmacokinetics
# Assay type: in vivo, human
# condition.details: human, plasma, oral, healthy subjects, multiple-dose study; SEM: 2 hr.; read-out: plasma elimination half-life (converted)
# Protocol: Blood samples were collected for pharmacokinetic analysis before the initial drug administration on Day 1, before the 5th, 6th and 7th doses (on Days 5, 6 and 7) (for Cmin determination), and at the following times after the 1st (Day 1) and 7th (Day 7) doses: 0.5, 1, 1.5, 2, 3, 4, 5, 6, 8, 10, 12, 15, 18, and 24 hours. […]
assay.metric: half-life

Summary for this compound, `OC[C@H]1CNC[C@@H](O)[C@@H]1O` : half-life is ~14 h

###

# protocol.details: Phase Ib twice-daily dose study of DGJ in healthy volunteers, plasma and urine pharmacokinetics
# Type: in vivo, human
# condition.details: human, plasma, oral; 150 mg bid, Day 1; read-out: t½ (converted)
assay.metric: half-life (h)
// note: answer is a bare numeric in h

The value of half-life measured for the molecule `OC[C@H]1NC[C@H](O)[C@@H](O)[C@H]1O` turned out to be 2.4

###

# protocol.details: Phase Ib twice-daily dose study of DGJ in healthy volunteers, plasma and urine pharmacokinetics
# Format: in vivo, human
# condition.details: human, plasma, po, 150 mg; read-out: Half-life (exponential decay) (converted)
assay.metric: half-life (h)
Write the answer as a number in h, unit excluded.

Briefly, half-life measured for `OC[C@H]1NC[C@H](O)[C@@H](O)[C@H]1O` : 3

###

# protocol.details: Example 13, tissue half-life of DGJ
# Type: in vivo, mice
# condition.details: male, hR301Q GLA Tg/KO, mouse, oral; skin, heart, kidney; after 4 weeks 100 mg/kg/day
assay.metric: half-life

Measured half-life, `OC[C@H]1NC[C@H](O)[C@@H](O)[C@H]1O` : 6 to 7 h

###

# protocol.details: Phase Ib twice-daily dose study of DGJ in healthy volunteers, plasma and urine pharmacokinetics
# Format: in vivo, human
# condition.details: human, plasma, oral, 50 mg, 50 mg bid, Day 1
assay.metric: Tmax
Show the value, then the unit it is measured in.

Note to self: Tmax recorded for `OC[C@H]1NC[C@H](O)[C@@H](O)[C@H]1O` was 2.9 h

###

# protocol.details: Phase Ib twice-daily dose study of DGJ in healthy volunteers, plasma and urine pharmacokinetics
# Assay type: in vivo, human
# condition.details: human, plasma, oral, 150 mg, 150 mg bid, Day 7
assay.metric: Tmax (h)
Lab book: enter the figure in h, no units written.

Memo: OC[C@H]1NC[C@H](O)[C@@H](O)[C@H]1O [DGJ] , reported Tmax: 2.9

###

# protocol.details: Phase Ib twice-daily dose study of DGJ in healthy volunteers, plasma and urine pharmacokinetics
# Format: in vivo, human
# condition.details: human, plasma, oral, 150 mg, 150 mg bid, Day 1
assay.metric: Tmax

Summary for this molecule, `OC[C@H]1NC[C@H](O)[C@@H](O)[C@H]1O` : Tmax is 3.1 h

###

# protocol.details: Phase Ib twice-daily dose study of DGJ in healthy volunteers, plasma and urine pharmacokinetics
# Type: in vivo, human
# condition.details: human, plasma, oral, 50 mg, 50 mg bid, Day 7
assay.metric: Tmax (h)
Report as a plain number; the unit h is understood.

Lab note: `OC[C@H]1NC[C@H](O)[C@@H](O)[C@H]1O` gave Tmax of 2.5
